These entries and their values trace back to the supplement of paper PMC7125110.

B1: glmS ribozyme (parent)
chain: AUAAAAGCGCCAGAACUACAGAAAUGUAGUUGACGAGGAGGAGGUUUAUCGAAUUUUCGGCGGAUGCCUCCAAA

Variants of: B1
Protocol summary: self-cleavage kobs at 160 uM GlcN6P; higher = faster cleavage; RNA array
Condition details: with glucosamine-6-phosphate
This sample holds only a part of the variants without activity.
Quantity kind: self-cleavage kobs at 160 uM GlcN6P (s⁻¹)
Give the value, in units of s⁻¹, as a plain number.

AUAAAAGCGCCAGAACUACAGAAAUGUAGUGAACGAGGAGGAGGUUUAUCGAAUUUUCGGCGGAUGCCUCCAAA [U31G G32A] ... 2.88e-05

Attention now shifts to the item below.
Using the record for AUAAAAGCGCCAGAACUACAGAAAUGUAGUUGACGAGGGGGAGGUUUAUCGAAUUUUCGGCGGAGGCCUCCAAA [A39G U65G] , report its self-cleavage kobs at 160 uM GlcN6P.
0.00068
